- System: RXF 393 renal
- procedureSummary: NCI tumour cell line growth inhibition, 48 h
observable: TGI

[
  {
    "compound": "COC(=O)c1sc2ncc3c(c2c1N)CCCCCC3",
    "observable": "TGI",
    "obsValue": "> 100 µM"
  },
  {
    "compound": "[O-][n+]1onc2c1CCC(=N\\O)/C2=N/Nc1ccccc1",
    "observable": "TGI",
    "obsValue": "> 100 µM"
  },
  {
    "compound": "CCc1c(C#N)c(S[C@@H](C(N)=O)c2ccccc2)nc(N(C)C)c1C#N",
    "observable": "TGI",
    "obsValue": "51.9 µM"
  }
]

Query block: Which TGI value belongs to C=C(C)C1Cc2c(cc(O)c3c(=O)c4c(oc23)C(O)Oc2cc(OC)c(OC)cc2-4)O1 (stereo not given) ?
Result block: > 10 µM

Query block: Which TGI value belongs to `CC(=O)[C@@]1(O)CC[C@H]2[C@@H]3C[C@H](C)C4=CC(=O)CC[C@]4(C)[C@H]3[C@@H](O)C[C@@]21C` ?
Result block: > 100 µM

The values you see were collected from PubChem BioAssay (NCI).
